Taken from paper PMC5131779.

Biological target: G5N WT (Homo sapiens, UniProt Q8TEQ6 1-726)
Sequence (Q8TEQ6 1-726): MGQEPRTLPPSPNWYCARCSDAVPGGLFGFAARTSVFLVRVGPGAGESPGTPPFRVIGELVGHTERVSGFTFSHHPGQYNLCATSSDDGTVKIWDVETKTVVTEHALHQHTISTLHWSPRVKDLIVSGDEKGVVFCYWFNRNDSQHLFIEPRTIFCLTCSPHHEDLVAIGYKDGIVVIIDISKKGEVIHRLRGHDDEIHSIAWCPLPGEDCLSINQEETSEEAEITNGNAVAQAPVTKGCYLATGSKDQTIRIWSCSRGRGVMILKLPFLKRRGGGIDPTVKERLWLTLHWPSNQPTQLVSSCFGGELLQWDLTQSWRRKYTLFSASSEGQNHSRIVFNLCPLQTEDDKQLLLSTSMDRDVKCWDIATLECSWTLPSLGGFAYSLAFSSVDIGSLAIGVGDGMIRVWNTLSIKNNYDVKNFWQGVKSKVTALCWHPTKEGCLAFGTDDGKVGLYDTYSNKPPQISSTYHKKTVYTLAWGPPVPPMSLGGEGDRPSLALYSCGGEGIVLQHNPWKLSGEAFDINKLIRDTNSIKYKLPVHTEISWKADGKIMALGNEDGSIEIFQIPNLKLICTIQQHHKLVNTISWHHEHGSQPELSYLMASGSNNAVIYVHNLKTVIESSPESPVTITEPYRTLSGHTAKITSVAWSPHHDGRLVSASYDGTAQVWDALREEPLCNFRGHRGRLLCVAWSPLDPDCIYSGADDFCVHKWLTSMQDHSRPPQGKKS
Assay: FP
quantity: Kd (nM)
// note: answer is a bare numeric in nM

Recorded Kd of GCAAUUUUUGACA (ssRNA) [U4 13-mer, FITC] , please. 240
